- Test system: multi-resistant Staphylococcus aureus 18-222
- Assay Notes: Paper diffusion drug sensitivity test, multi-resistant Staphylococcus aureus 18-222
- Type: cell-based
- Assay Conditions: Multi-resistant Staphylococcus aureus 18-222; 30 μg/tablet paper disc; LB plate, 37° C., 24 h
Assay Metric: Zone of inhibition (mm)
Answers are plain numbers, in mm.

Answered examples (3):
[[record]]
compound = "C=C[C@]1(C)C[C@@H](OC(=O)CO)[C@]2(C)[C@H](C)CC[C@]3(CCC(=O)[C@H]32)[C@@H](C)[C@@H]1O"
reading = 0

[[record]]
compound = "O=C(O)CCCC[C@@H]1CCSS1 (racemic)"
reading = 0

[[record]]
compound = "CN[C@H](CC(C)C)C(=O)N[C@H]1C(=O)N[C@@H](CC(N)=O)C(=O)N[C@H]2C(=O)N[C@H]3C(=O)N[C@H](C(=O)N[C@H](C(=O)O)c4cc(O)cc(O)c4-c4cc3ccc4O)[C@H](O)c3ccc(c(Cl)c3)Oc3cc2cc(c3O[C@@H]2O[C@H](CO)[C@@H](O)[C@H](O)[C@H]2O[C@H]2C[C@](C)(N)[C@H](O)[C@H](C)O2)Oc2ccc(cc2Cl)[C@H]1O"
reading = 18


Consider now this further compound.
### Prompt Answer with the recorded Zone of inhibition of C=C[C@]1(C)C[C@@H](OC(=O)COC(=O)CCCCC2CCSS2)[C@]2(C)CC[C@@H](C)[C@@]3(CCC(=O)[C@@H]23)[C@@H](C)[C@@H]1O (stereo partly shown) only.
### Response 16
